Exercise: state measured IC50 for each of the molecules provided.
- target_of_assay: Gastrin/cholecystokinin type B receptor (Cavia porcellus)
- assay_remarks: Inhibition of ligand binding to Cholecystokinin type B receptor from guinea pig cortical membrane.
Return type: number; implicit unit nM.

Prompt: // Input: CCCN1C(=O)[C@H](NC(=O)Nc2cccc(C)c2)N=C([C@H]2CC(C)(C)CCN2)c2ccccc21 . Output its IC50 only.
Response: 1.5

Prompt: // Input: CCCN1C(=O)[C@H](NC(=O)Nc2cccc(C)c2)N=C([C@H]2CCCCN2C)c2ccccc21 . Output its IC50 only.
Response: 54

Prompt: // Input: CCN(CC)C(=O)CN1C(=O)[C@H](NC(=O)Nc2cccc(C)c2)N=C(c2cccc[n+]2C)c2ccccc21 . Output its IC50 only.
Response: 18

Prompt: // Input: CCCN1C(=O)[C@H](NC(=O)Nc2cccc(C)c2)N=C([C@H]2CCC(C)(C)CCN2C)c2ccccc21 . Output its IC50 only.
Response: 26
